Listed below: IC50 values for each entry.
# Measurement Target: cyclin D1/cdk 4 enzyme (Homo sapiens)
# Construct: made in house; host or cells: Sf9 insect cells, recombinant baculovirus
# Sequence (P11802 whole entry, species assumed): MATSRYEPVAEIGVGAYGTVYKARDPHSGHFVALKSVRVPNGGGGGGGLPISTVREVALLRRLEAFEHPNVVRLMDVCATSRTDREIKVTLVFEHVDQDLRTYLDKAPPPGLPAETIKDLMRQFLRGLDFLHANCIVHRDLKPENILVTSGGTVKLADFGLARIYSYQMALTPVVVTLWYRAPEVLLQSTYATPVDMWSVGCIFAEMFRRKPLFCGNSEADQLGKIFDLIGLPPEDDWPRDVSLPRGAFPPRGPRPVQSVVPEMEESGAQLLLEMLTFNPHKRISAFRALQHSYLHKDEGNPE
# Sequence (P24385 whole entry partner, species assumed): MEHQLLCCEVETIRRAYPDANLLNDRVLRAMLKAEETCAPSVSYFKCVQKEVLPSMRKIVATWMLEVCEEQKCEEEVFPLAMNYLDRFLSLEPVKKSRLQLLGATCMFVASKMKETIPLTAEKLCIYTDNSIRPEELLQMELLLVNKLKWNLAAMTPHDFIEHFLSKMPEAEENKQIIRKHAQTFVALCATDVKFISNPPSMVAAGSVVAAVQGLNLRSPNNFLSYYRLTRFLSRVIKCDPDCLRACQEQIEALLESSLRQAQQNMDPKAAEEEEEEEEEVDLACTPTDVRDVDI
# Procedure Text: CDK4 ELISA kinase assay (phospho-Rb ser 795 detection)
# Format: biochemical
# Particulars: In Vitro Enzyme Assays, 200 μM ATP, read-out: CDK4 IC50
Assay Readout: IC50 (nM)

compound=CCCOc1ccc(CN/C=C2\C(=O)NC(=O)c3ccc(-c4cccc(F)c4)cc32)cc1O recorded_result=1400
compound=CN1CCN(c2ccc(N/C=C3\C(=O)NC(=O)c4ccc(Br)cc43)nc2)CC1 recorded_result=3300
compound=CCCOc1cc(O)cc(CN/C=C2\C(=O)NC(=O)c3ccc(Br)cc32)c1 recorded_result=2000
compound=C[C@@H]1CN(c2ccc(N/C=C3\C(=O)NC(=O)c4ccc(-c5ccsc5)cc43)cc2F)C[C@H](C)N1 recorded_result=140
compound=O=C1NC(=O)c2ccccc2/C1=C/Nc1ccc(CCN2CCCC2)cc1 recorded_result=10200
compound=COc1ccc(CN/C=C2\C(=O)NC(=O)c3ccc(-c4ccc(F)cc4)cc32)cc1O recorded_result=9
compound="CN1CCN(C2CCC(NC=C3C(=O)NC(=O)c4ccc(I)cc43)CC2)CC1 (centres unmarked)" recorded_result=460
compound=COc1cnc(CN/C=C2\C(=O)NC(=O)c3ccc(Br)cc32)cc1O recorded_result=120
compound=CN(CCO)c1ccc(N/C=C2\C(=O)NC(=O)c3ccc(Br)cc32)cc1 recorded_result=45500
compound="CN1CCCC1c1ccc(N/C=C2\\C(=O)NC(=O)c3ccc(-c4cccs4)cc32)cc1 (centres unmarked)" recorded_result=180
compound=CN1CCN(c2ccc(N/C=C3\C(=O)NC(=O)c4ccc(Br)cc43)cc2F)CC1 recorded_result=2900
compound=O=C1NC(=O)c2ccc(Nc3ccccc3)cc2/C1=C/Nc1ccc(CN2CCCCC2)cc1 recorded_result=1800
compound=C=CC(=O)Nc1ccc2c(c1)/C(=C/Nc1ccc(N3CCN(C)CC3)cc1)C(=O)NC2=O recorded_result=14700
compound=CN(C)CCOc1ccc(N/C=C2\C(=O)NC(=O)c3ccc(Br)cc32)cc1 recorded_result=480
compound=CN(C(=O)CN1CCCCC1)c1ccc(N/C=C2\C(=O)NC(=O)c3ccccc32)cc1 recorded_result=15000
compound=COC[C@@H]1CCCN1Cc1ccc(N/C=C2\C(=O)NC(=O)c3ccc(-c4ccc(F)cc4)cc32)cc1 recorded_result=190
compound=O=C1NC(=O)c2ccc(-c3cccnc3)cc2/C1=C/Nc1ccc(CN2CCCCC2)cc1 recorded_result=130

====

# Tested on: HCT-116
# Procedure Text: Cytotoxicity assay (SRB), HCT-116
# Type: cell-based
# Particulars: Homo sapiens, HCT-116, 72 h, HCT116 cells, SRB, three days; read-out: In Vitro Cellular Activity IC50 HCT116
pIC50: −log10 of the molar value.
Lab note: anything with pIC50 at or over 5 counts as True; the rest go in False.

compound="COC[C@H]1CCCN1Cc1ccc(N/C=C2\\C(=O)NC(=O)c3ccc(-c4ccc(OC(C)C)cc4)cc32)cc1 [Example 300]" measurement_target=HCT-116 class_name=True
compound="COc1ccc(CN/C=C2\\C(=O)NC(=O)c3ccc(-c4cn[nH]c4)cc32)cc1O [Example 136]" measurement_target=HCT-116 class_name=False
compound="O=C1NC(=O)c2ccccc2/C1=C/Nc1cccc(CN2CCCC2)c1 [Example 18]" measurement_target=HCT-116 class_name=False
compound="CN1CCN(C(=O)Nc2ccc(N/C=C3\\C(=O)NC(=O)c4ccc(Br)cc43)cc2)CC1 [Example 215]" measurement_target=HCT-116 class_name=True
compound="CN1CCN(c2ccc(N/C=C3\\C(=O)NC(=O)c4ccc(-c5ccoc5)cc43)cc2F)CC1 [Example 297]" measurement_target=HCT-116 class_name=True
compound="O=C1NC(=O)c2ccc(-c3ccc(Cl)cc3)cc2/C1=C/Nc1ccc(CN2CCCCC2)cc1 [Example 111]" measurement_target=HCT-116 class_name=True
compound="C=CCOc1ccc(CN/C=C2\\C(=O)NC(=O)c3ccc(Br)cc32)cc1O [Example 149]" measurement_target=HCT-116 class_name=False
compound="O=C1NC(=O)c2ccc(-c3ccsc3)cc2/C1=C/NCc1ccc(OC(F)F)c(O)c1 [Example 200]" measurement_target=HCT-116 class_name=True

====

# System: HCT-116
# Procedure Text: Cytotoxicity assay (SRB), HCT-116
# Type: cell-based
# Particulars: Homo sapiens, HCT-116, 72 h, HCT116 cells, 3 days, SRB; read-out: In Vitro Cellular Activity IC50 HCT116
Label Met when IC50 is strictly below 9 µM; at or above that, label Not met.

molecule=N#Cc1ccc(-c2ccc3c(c2)C(=CNCc2ccc(O)c(O)c2)C(=O)NC3=O)cc1 class_name=Met
molecule=CN1CCN(c2ccc(NC=C3C(=O)NC(=O)c4ccc(C=Cc5ccc(S(N)(=O)=O)cc5)cc43)cc2)CC1 class_name="Not met"
molecule=O=C1NC(=O)c2ccc(I)cc2/C1=C/Nc1ccc(CN2CCS(=O)(=O)CC2)cc1 class_name="Not met"
molecule=COC1CCN(Cc2ccc(N/C=C3\C(=O)NC(=O)c4ccc(Br)cc43)cc2)CC1 class_name=Met
molecule=Nc1ccc(NC=C2C(=O)NC(=O)c3ccccc32)cc1 class_name="Not met"
molecule=CN(C)Cc1cccc(-c2ccc(CN/C=C3\C(=O)NC(=O)c4ccc(I)cc43)cc2O)c1 class_name=Met
molecule=O=C1NC(=O)c2ccc(I)cc2/C1=C/Nc1ccc(CN2CCC(O)CC2)cc1 class_name=Met
molecule=CN1CCN(c2ccc(NC=C3C(=O)NC(=O)c4ccc(-c5ccc(C=CC(=O)O)cc5)cc43)cc2)CC1 class_name="Not met"
molecule="O=C1NC(=O)c2ccc(I)cc2/C1=C/Nc1ccc(C2CCCN2CCO)cc1 (centres unmarked)" class_name=Met
molecule=CCN1CCN(c2ccc(N/C=C3\C(=O)NC(=O)c4ccc(I)cc43)cn2)CC1 class_name=Met
molecule=CN1CCN(c2ccc(NC=C3C(=O)NC(=O)c4ccc(C=Cn5ccnc5)cc43)cc2)CC1 class_name=Met
molecule=O=C1NC(=O)c2ccc(I)cc2/C1=C/NCc1ccc(I)c(O)c1 class_name=Met
molecule=COc1ccc(CNC=C2C(=O)NC(=O)c3ccc(C=Cn4ccnc4)cc32)cc1O class_name="Not met"
molecule=CCC(=O)Nc1cnc(CN/C=C2\C(=O)NC(=O)c3ccc(I)cc32)cc1O class_name="Not met"
molecule=COc1ccc(CNC=C2C(=O)NC(=O)c3ccc(-c4ccccc4)cc32)cc1O class_name="Not met"
molecule=CN1CCN(c2ccc(N/C=C3\C(=O)NC(=O)c4ccc(-c5ccoc5)cc43)nn2)CC1 class_name=Met
molecule=Cc1cccc(-c2ccc3c(c2)C(=CNCc2ccc(S(N)(=O)=O)cc2)C(=O)NC3=O)c1 class_name="Not met"

====

# Measurement Target: cyclin E/CDK2 enzyme (Homo sapiens, UniProt P24941)
# Construct: made in house; host or cells: Sf9 insect cells, recombinant baculovirus
# Procedure Text: CDK2 ELISA kinase assay (phospho-Rb ser 795 detection)
# Assay type: biochemical
# Particulars: In Vitro Enzyme Assay, cyclin E/CDK2, read-out: CDK2 IC50
pIC50: −log10 of the molar value.
Lab note: anything with pIC50 at or over 5 counts as met; the rest go in not met.

compound=CN1CCN(c2ccc(NC=C3C(=O)NC(=O)c4ccc(-c5ccn(CCCC#N)c5)cc43)cc2)CC1 class_name="not met"
compound=CC(C)(C)c1ccc2c(c1)/C(=C/NCc1cc(O)c(-c3ccoc3)cn1)C(=O)NC2=O class_name=met
compound=C[C@@H]1CN(c2ccc(N/C=C3\C(=O)NC(=O)c4ccc(-c5ccoc5)cc43)nc2)C[C@H](C)N1 class_name="not met"
compound=CCN1CCN(c2ccc(N/C=C3\C(=O)NC(=O)c4ccc(-c5ccoc5)cc43)nc2)CC1 class_name="not met"
compound=COC[C@@H]1CCCN1Cc1ccc(N/C=C2\C(=O)NC(=O)c3ccc(-c4ccco4)cc32)cc1 class_name="not met"
compound=N#CCc1ccc(NC=C2C(=O)NC(=O)c3ccccc32)cc1 class_name="not met"
compound=O=C1NC(=O)c2ccc(-c3ccc(F)cc3)cc2/C1=C/Nc1ccc(CN2CCC(CCO)CC2)cc1 class_name="not met"
compound=CN1CCN(c2ccc(NC=C3C(=O)NC(=O)c4ccc(C=Cc5cnccn5)cc43)cc2)CC1 class_name="not met"
compound=O=C1NC(=O)c2ccc(I)cc2/C1=C/NCc1ccc(-c2cccnc2)c(O)c1 class_name=met
compound=COc1ccc(NC=C2C(=O)NCc3cc(Br)ccc32)cc1 class_name="not met"
compound=CN1CCN(c2ccc(NC=C3C(=O)NC(=O)c4ccc(C=Cc5ccccn5)cc43)cc2)CC1 class_name="not met"
compound=CN1CCN(c2ncc(N/C=C3\C(=O)NC(=O)c4ccc(I)cc43)cn2)CC1 class_name="not met"
compound=CN1CCN(c2ccc(CN/C=C3\C(=O)NC(=O)c4ccc(I)cc43)cc2O)CC1 class_name=met
compound="CN1CCN(c2ccc(N/C=C3\\C(=O)NC(=O)c4ccc(-c5ccoc5)cc43)c(F)n2)CC1 [Example 497]" class_name="not met"
compound="CN1CCCC1c1ccc(N/C=C2\\C(=O)NC(=O)c3ccc(I)cc32)nc1 (centres unmarked)" class_name="not met"
compound=COc1cccc(CC=Cc2ccc3c(c2)C(=CNCc2ccc(O)c(O)c2)C(=O)NC3=O)c1O class_name="not met"
compound=CCN(CC)CCn1ccc2cc(-c3ccc4c(c3)C(=CNc3ccc(N5CCN(C)CC5)cc3)C(=O)NC4=O)ccc21 class_name="not met"
compound=CN1CCN(c2ncc(N/C=C3\C(=O)NC(=O)c4ccc(-c5ccoc5)cc43)cn2)CC1 class_name="not met"
compound=CN1CCN(c2ccc(NC=C3C(=O)NC(=O)c4ccc(-c5ccc(C=CC(=O)O)cc5)cc43)cc2)CC1 class_name="not met"
compound=O=C1NC(=O)c2ccc(-c3cccc(Cl)c3)cc2C1=CNCc1ccc(O)c(O)c1 class_name="not met"
compound=Nc1ccc(NC=C2C(=O)NC(=O)c3ccccc32)cc1 class_name=met
compound=COc1ccc(CNC=C2C(=O)NC(=O)c3ccc(-c4ccccc4)cc32)cc1O class_name="not met"
compound=O=C1NC(=O)c2ccc(I)cc2/C1=C/NCc1cc(O)ccc1-c1ccco1 class_name="not met"
compound=COC[C@@H]1CCCN1c1ccc(CN/C=C2\C(=O)NC(=O)c3ccc(I)cc32)cc1O class_name="not met"
compound=C[C@@H]1CN(c2ccc(N/C=C3\C(=O)NC(=O)c4ccc(Br)cc43)nc2)C[C@H](C)N1 class_name="not met"
compound=O=C1NC(=O)c2ccc(I)cc2/C1=C/NCc1ccc(-c2ccccc2)c(O)c1 class_name="not met"
compound=O=C1NC(=O)c2ccc(I)cc2/C1=C/NCc1cc(O)c(-c2ccccc2)cn1 class_name=met
